test: yeast display, Sf9 membrane polyspecificity reagent, FACS + sequencing; frameworks hold sequencing errors
recorded_metric: polyreactivity (PSR sort gate)

Below: 5 sequences and their reported polyreactivity (PSR sort gate).
entry_sequence	polyreactivity (PSR sort gate)
QVQLVESGGGLVQAGGSLRLSCAASGSIFRAYAMGWSRQAPGKERELVAAISIGGRTYYADSVKGRFTISRDNAKNTVYLQMNSLKPEDTAVYYCAAVRSYVKGGMYYWGQGTQVTVSS	low polyreactivity
QVQLVESGGGLVQAGGSLRLSWAASGRIFYFYAMGWYRQAPGKERELVASISSGGITNYADSVKGRFTISRDNAKNTVYLQMNSLKPEDTAVYYCNAGYASGKYSGGYLYGYWGQGTQVTVSS	low polyreactivity
QVQLVESGGGLVQAGGSLRLSCAASGITFRYYAKGWYRQAPGKERELVAAISRAGSTNYADSVKGRFTISRDNAKNTVYLQMNSLKPVDTAVYSCNARRRSTNAVSYRYITPYDYWGQGTQVTVSS	high polyreactivity
QVQLVESGGGLVQAGGSLRLSCAASGFTFRYYAMGWYRQAPGKEREFVAAIRRSGANTYYADSVKGRFTISRDNAKNTVYLQMNSLKPEDTAVYYCAADKNYYPYKFDYWGQGTQVTVSS	high polyreactivity
QVQLVESGVGLVQAGGSHRLSCAASGPTFRYNTMGWYRQAPGKERELVASISSGDRTDYADSVKGRFTISRDNAKYTVYLQMNSLKPEDTAVYYCNNKWYSIYYYWGQGTQVTVSS	high polyreactivity

Query: polyreactivity (PSR sort gate); subject: "QVQLVESGGGLVQAGGSLRLSCAASGRTFRYYTMGSYRPAPGKEREFVAAISSTGGTYYADSVKGRFTISRDNAKNTVYLQMNSLKPEDTAVYYCAKVYFWGALSPDKYDEDYWGQGTQVTVSS"
low polyreactivity

Query: polyreactivity (PSR sort gate); subject: "QLQLVESGGGLVQAGGSLRISCAASGFIFNGYAMGWSRQAPGKERELVAAITADVGDTYYADSVKGRFTLSRDNAKYTVYLQLNSLKPDDPAVYYCAADQAEWLDPDDYWGQGTQVTVSS"
low polyreactivity

---

experiment: yeast display, Sf9 membrane polyspecificity reagent, FACS + sequencing; frameworks hold sequencing errors
recorded_metric: polyreactivity (PSR sort gate)

Below: 5 sequences and their reported polyreactivity (PSR sort gate).
entry_sequence	polyreactivity (PSR sort gate)
QVKLVESCGGLVQAGGSLRLSCAASGYISSFNTKGWYRQAPGKERELVAAITRDGSTYYADSVKGRFTISRDNAKNSVYLQMNSLKPEYTAVYYCAARGWYATWLYYYWGQGSQVTVSS	high polyreactivity
QVQLVESVGGLVQAGGSLRLSCAASGTLATYAMGWYRQAHGKERELVAAIRYSDGRTYYADSVKGRFTISRDNAKNTVYLLMNSLKPEDTAVYYCAASFRGRGKKLDYWGQGTQVTVSS	low polyreactivity
QVQLVESGGGLVQARRSLRLSCAASGFTVKRYAMGWYRPEPGKEREFVAAITRGGGSTYYADYVKGRFTISRDNAKNTVYLQMNSLKPEDTAVYYCNARSRSYVPYYYWGQGTQVTVSS	high polyreactivity
QVQLVESCGGIVQAGGSLRLSCAASGRIFGENAMGWYRQEPGKEREFVAVISISDASTYYADSVKGRFTISRDNAKNTVFFQMNSLKPEDTAVYYCAAEGPDSYSMDYWGQGTQVTVSS	low polyreactivity
QVHLVESGGGLVQAGGSLRLSCAASGSIFYYNTMGWYRQAPGKERELVAGISWGGGRTYYADSVKGRFTISRDNAKNTVYLQMNSLKPEDTAVYYCNARHRRLPSNGGYDYWGKGTQVTVSS	high polyreactivity

Query: polyreactivity (PSR sort gate); subject: "QVQLVESGGGLVQAGGSLRLSCAASGIIFFSNAMGWYRQAPGKERELVAAITGGSSTNYADSVKGRFTISRDNAKNTVYLQMNSLKPEENAVYYCNAPTKSTPRSEPIPYYEFDYWGQGTQVTVSS"
low polyreactivity

Query: polyreactivity (PSR sort gate); subject: "QVQLVESGGGLVQAGGSLRLSCAASGSIFSANVMGWYRQAPGTERELVAAIRRGGTTYYADSVKGRFTISRDNAKNTVYLQMNSLKPEDTAVYYCATDGIFGSYLRFEVAYDYWGQGTQVTVSS"
low polyreactivity

Query: polyreactivity (PSR sort gate); subject: "QVQLEDSGGGLVQAGGSLRLSCAASGSTFDNYAMGWYRQAPGKERELVAVITQSGGITFYADSVKGRFTISRDNAKNTVYLQMNSVKPEDTAVYYCNVELDRSWYYYWGQGTQVTVSS"
low polyreactivity

Query: polyreactivity (PSR sort gate); subject: "QVQLVESGGGLVQAGGSLRLSCAASGFIFTPYAMGWYRQAPGKERELVAAITWRGARTYYADSVKGRFTISRDNAKNTVYLQMNSLKPEDTAVYYCATTFTGYNKEFGYWGQGTQVTVSS"
high polyreactivity

Query: polyreactivity (PSR sort gate); subject: "QVQVVESGGGLVQAGGSLRLSCAPSGRTFYGNVMGWYRQAPGKERELVAAISSRGSSTRYADSVKGRFTISRDNAKNTVYLQMNRLKPEDTAVYYCAARNEYWGQGTQVTVSS"
high polyreactivity

Query: polyreactivity (PSR sort gate); subject: "QVQLVESGGGLVQAGGSLRLSCAASGRIFKLYAMGWYRQAPGKERELVAAITRRGGSTSYADSVKGRFTISRDNAKNTVYLQMNSLKPEDTAVYYCNARSSETWHGDYWGQGTQVTVSS"
high polyreactivity

Query: polyreactivity (PSR sort gate); subject: "QVQLVESGGGLVQAGGSLRLSCAASGSIFRSNAMGWYRQAPGKERELVAAISRSGGRTYYADSVKGRFTISRDNAKNTVYLLMNSLKPEDTAVYYCAAQVVRSLKYEYWGQGTQVTVSS"
high polyreactivity

---

assay: yeast display, Sf9 membrane polyspecificity reagent, FACS + sequencing; frameworks hold sequencing errors

entry_sequence	polyreactivity (PSR sort gate)
QVQLVDSGGGSVQAGGSLRLSCAASGSTFYENAMGWYREAPGKETELVAASTWSGGRTYYADSVKGRFTISRDNAKNTVYLQMYSLKPEDTAVYYCNARARSRKFYYWGQGTQVTVSS	high polyreactivity
QVQLVESGGGLVQAGGSLRLSCAASGSIFGWYAMGWYRQAPGKEREFVAAISGGSTYYADSVKGRFTISRDNAKNTVYLQMNSLKPEDTAVYYCNAQGYYFYPFDYWGQGTQVTVSS	high polyreactivity

---

assay: yeast display, Sf9 membrane polyspecificity reagent, FACS + sequencing; frameworks hold sequencing errors
recorded_metric: polyreactivity (PSR sort gate)

entry_sequence	polyreactivity (PSR sort gate)
QVQLVESAGGLVQAGGSLRLSCAASGRTFIQYAMGWYRQAPGKERELVAVIRWSGGRTYYADTVKGRFTISRDNAKNTVYLQMNSLKPEDTAVYYCAKRSGSTFDWGQGTQVTVSS	high polyreactivity
QVQLVETGGGLVQAGGSLRLSCAASGLTFDENAMGWYRQAPGINYSGASTYYADSVKGRFTISRDNAKNTVYLQMNSLKPEDTAVYYCAAEVVAQMNYWGQGTQVTVSS	low polyreactivity
QVQLVESGGGLVQAGGSLRLSCAASGRIFSVYAMGWYRQAPGKERELVASIRSRGSSTYYADSVKGRFTISRDNAKNTVYLQMNSLKPEDTAVYYCAVDVLTVGQSYDHWGQGTQVTVSS	high polyreactivity
QVQLVESGGGLVQAGGRLRLSFAASGSIFYRNVLGWYREAPGKERELVATISRGGTTNYADSVKGRFTISRDNAKNTVYLQMNSLKPEDTAVYYCAAPIGDVYVGKGYDSWGQGTQVTVSS	low polyreactivity
QVQLVESGGGLVQAGGRLRLSCASTGLTLHGNAMGWYRQAPGKERELVATISSSGGSTFYADSVKGRFTISRDNAKNTDYLQMNSLKPEDTAVYYCNADAPYSDDYYVRFDYWGQGTQVTVSS	low polyreactivity
QVQLVESGGGLVQAGGSLRLSCAASGIIFVYYVMGWYRQAPGKERELVASIDGSGGSTNYADSVKGRFTISRDNAKNTVYLQMNSLKPEDTAVYYCNADNILYWSTLDYLGQGTQVTVSS	low polyreactivity
QVQLVESGGGLFQAGGSLRLSCAATGRTYEGNAMGWSIQAPGKERELVAAITSGGRTNYADSVKGRFSISRDNAKNTVDLQMNSLKPEDTAVYYCAVETRDRSNYFPGQAYDYWGQGTQVTVSS	low polyreactivity
QVQLVESGGGLVQAGGSLRLSCAASGGILDTYAMGWYRQAPGKERELVAAITSGGNTNYADSVKGRFTISRDNAKNTVYLQMNSLKPEDTAVYYCNVVTWYYVFRPWEYDYWGQGTQVTVSS	low polyreactivity
QVQLVESGGGLVQAGGSLRLSCAASGSTFPSYAMGCYRQAPAKERELVAAINSGGGTNYADSVKGRFTISRDNAKNTVYLQMNSLKPEDTAVYYCAKSRYDYTKTEGGYWGQGTQVTVSS	low polyreactivity
QVQLVESGGGLVQAGGSLRLSCAASGFTFGWNAMGWYRQAPGKERELVAAISWSGGSTYYADSVKGRFTISRDNAKNTVYLQMNSLKPEDTAVYYCAAYPAYGGDYWGQGTQVTVSS	high polyreactivity

Query: polyreactivity (PSR sort gate); subject: "QVQLVESGGGLVQAGGSLRLSCAASGLTFGAYAMGWYRQAPGKEREFVAAITYSGGSTNYADSVKGRFTISRDNAKNTVYLQMNSLKPEDTAVYYCNAGYYSPWAFYPYDYWGQGTQVTVSS"
high polyreactivity

Query: polyreactivity (PSR sort gate); subject: "QVQLVESGGGLVQAGGSLRLSCAPSGSIFVKNAMGWYRQAPGKERELVAFITIRTATTYYADSVKGRFTISRDNAKNTVYLQMNSLKPEDTAVYYCAAAKRQRGYLQREGNYWGQGTQVTVSS"
low polyreactivity

Query: polyreactivity (PSR sort gate); subject: "QVQLVESGGGLVQAGGSLRLSCAASGRIFSYAMGWYRQAPGKERELVAAINWSGDSTYYADSVKGRFTISRDNAKNTVYLQMNSLKPEDTAVYYCNAVSAYWGAYGYWGQGTQVTVSS"
high polyreactivity

// data source = the nanobody polyreactivity screen of Harvey et al. (2022)
